Each recorded value in this set is attributed to patent US9765067B2.

Measured log10(EC50) by item
Biological target: soluble guanylate cyclase (human GUCYA3/GUCYB3) overexpressed in CHO cells (Homo sapiens, UniProt Q02108+Q02153)
Sequence (Q02108 1-690 partner): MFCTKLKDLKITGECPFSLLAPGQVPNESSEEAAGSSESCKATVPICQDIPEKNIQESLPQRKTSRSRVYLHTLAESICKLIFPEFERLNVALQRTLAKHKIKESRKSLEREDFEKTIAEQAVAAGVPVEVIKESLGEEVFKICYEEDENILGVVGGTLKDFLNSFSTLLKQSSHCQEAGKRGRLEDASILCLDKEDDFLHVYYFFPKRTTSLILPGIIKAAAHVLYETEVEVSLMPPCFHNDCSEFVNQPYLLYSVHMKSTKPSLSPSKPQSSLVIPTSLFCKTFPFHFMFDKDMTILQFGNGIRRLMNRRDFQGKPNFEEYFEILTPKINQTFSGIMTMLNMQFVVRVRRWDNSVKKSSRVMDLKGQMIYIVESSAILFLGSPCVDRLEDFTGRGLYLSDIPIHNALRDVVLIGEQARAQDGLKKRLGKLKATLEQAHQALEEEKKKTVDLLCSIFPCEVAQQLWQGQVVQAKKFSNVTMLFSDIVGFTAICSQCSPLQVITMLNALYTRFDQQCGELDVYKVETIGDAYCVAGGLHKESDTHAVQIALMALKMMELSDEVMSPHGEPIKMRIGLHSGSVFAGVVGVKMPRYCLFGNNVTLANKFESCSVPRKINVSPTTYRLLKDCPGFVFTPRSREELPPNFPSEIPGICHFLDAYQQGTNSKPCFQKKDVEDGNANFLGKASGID
Sequence (Q02153 1-619): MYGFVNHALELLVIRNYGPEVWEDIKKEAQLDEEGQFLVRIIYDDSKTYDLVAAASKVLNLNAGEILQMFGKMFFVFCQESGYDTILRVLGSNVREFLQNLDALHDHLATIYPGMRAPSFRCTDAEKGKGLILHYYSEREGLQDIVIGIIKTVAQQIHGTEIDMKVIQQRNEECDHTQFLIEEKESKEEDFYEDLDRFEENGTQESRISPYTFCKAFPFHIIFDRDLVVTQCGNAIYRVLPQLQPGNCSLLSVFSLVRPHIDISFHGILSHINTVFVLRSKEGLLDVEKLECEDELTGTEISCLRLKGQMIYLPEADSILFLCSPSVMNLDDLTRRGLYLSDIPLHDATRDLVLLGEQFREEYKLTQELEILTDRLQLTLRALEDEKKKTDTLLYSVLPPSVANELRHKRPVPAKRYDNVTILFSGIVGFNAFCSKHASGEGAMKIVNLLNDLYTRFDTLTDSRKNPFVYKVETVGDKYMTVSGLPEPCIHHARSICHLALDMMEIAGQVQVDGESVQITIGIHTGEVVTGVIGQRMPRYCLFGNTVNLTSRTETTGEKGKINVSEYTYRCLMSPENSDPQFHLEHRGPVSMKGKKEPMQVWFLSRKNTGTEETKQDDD
Experiment: CHO cellular assay (cGMP production, HTRF)
Conditions: CHO K1 clone 8E10 overexpressing human sGC, Cisbio HTRF, 1 h room temperature, 1 mM IBMX, 20 uM ODQ, minimum quantification limit 0.5 nM
Values below are the log10 of the recorded EC50, with nM as the unit.

1. CCc1nc(OCc2cc(C)sc2-c2cccc(-n3ncc(C(=O)O)c3C(F)(F)F)n2)ccc1C1CCN(C(=O)C2CC2)CC1 : 0.00

In: Given Cc1cc(C2CCN(C(=O)C3CC3)CC2)ccc1OC(C)c1ccsc1-c1cccc(-n2ncc(C(=O)O)c2C(F)(F)F)c1 (stereo not shown) , respond with its log10(EC50).
Out: 1.18

In: Given O=C(O)c1cnn(-c2cccc(-c3sccc3CNc3ccc(C4CCN(C(=O)C5CC5)CC4)cc3)n2)c1C(F)(F)F , respond with its log10(EC50).
Out: 0.65

In: Given Cc1cc(C2CCN(CC3CC3)CC2)ccc1OCc1ccsc1-c1cccc(-n2ncc(C(=O)O)c2C(F)(F)F)n1 , respond with its log10(EC50).
Out: 2.63

In: Given Cc1cc(COc2ccc(C3CCN(C(=O)C4CC4)CC3)c(F)c2)c(-c2cccc(-n3ncc(C(=O)O)c3C(F)(F)F)n2)s1 , respond with its log10(EC50).
Out: 0.48

In: Given CCCc1cc(COc2ccc(C3CCN(CC(F)(F)F)CC3)cc2C)c(-c2cccc(-n3ncc(C(=O)O)c3C(F)(F)F)n2)s1 , respond with its log10(EC50).
Out: 2.63

----------
target: soluble guanylate cyclase (human GUCYA3/GUCYB3) overexpressed in CHO cells (Homo sapiens, UniProt Q02108+Q02153); assay: CHO cellular assay (cGMP production, HTRF); details: CHO K1 clone 8E10 overexpressing human sGC, Cisbio HTRF, 1 h room temperature, 1 mM IBMX, 20 uM ODQ, minimum quantification limit 0.5 nM
Measured EC50 by item
Please give a number only; it is taken to be in nM.

These solved cases illustrate the format of a correct answer.
1) Cc1cc(C2CCN(C(=O)C3CC3)CC2)ccc1OCc1c(-c2cccc(-n3ncc(C(=O)O)c3C(F)(F)F)n2)sc(C)c1C(C)C [Example 18-1] : 7
2) Cc1cc(C2CCN(C(=O)C3CC3)CC2)ccc1OCc1cc(C2CC2)sc1-c1cccc(-n2ncc(C(=O)O)c2C(F)(F)F)n1 [Example 6-7] : 1.4
3) CCc1c(C(=O)O)cnn1-c1cccc(-c2sc(C)cc2COc2ccc(C3CCN(CC(F)(F)F)CC3)cc2C)n1 [Example 18-2] : 2

In: Given CCC(=O)N1CCC(c2ccc(OCc3ccsc3-c3cccc(-n4ncc(C(=O)O)c4C(F)(F)F)n3)cc2)CC1 [Example 1] , respond with its EC50.
Out: 24

----------
Target: soluble guanylate cyclase (human GUCYA3/GUCYB3) overexpressed in CHO cells (Homo sapiens, UniProt Q02108+Q02153)
Sequence (Q02108 1-690 partner): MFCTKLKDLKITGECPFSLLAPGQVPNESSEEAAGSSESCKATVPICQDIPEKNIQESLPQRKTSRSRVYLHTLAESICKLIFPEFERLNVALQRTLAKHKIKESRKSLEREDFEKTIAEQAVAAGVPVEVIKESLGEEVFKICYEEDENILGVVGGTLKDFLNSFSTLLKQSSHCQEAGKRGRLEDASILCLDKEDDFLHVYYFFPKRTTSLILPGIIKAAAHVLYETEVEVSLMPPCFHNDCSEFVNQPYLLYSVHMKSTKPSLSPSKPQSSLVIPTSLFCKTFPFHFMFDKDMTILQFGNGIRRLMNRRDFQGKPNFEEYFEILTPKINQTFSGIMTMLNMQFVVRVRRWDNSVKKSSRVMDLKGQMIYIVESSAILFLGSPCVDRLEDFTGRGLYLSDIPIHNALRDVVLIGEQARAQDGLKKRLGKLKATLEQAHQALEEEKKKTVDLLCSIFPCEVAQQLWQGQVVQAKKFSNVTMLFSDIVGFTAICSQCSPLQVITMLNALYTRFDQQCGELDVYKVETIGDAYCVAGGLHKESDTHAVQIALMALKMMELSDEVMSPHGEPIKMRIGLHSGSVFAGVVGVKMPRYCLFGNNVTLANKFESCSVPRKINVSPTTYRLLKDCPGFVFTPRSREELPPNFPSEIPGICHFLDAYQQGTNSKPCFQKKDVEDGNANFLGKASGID
Sequence (Q02153 1-619): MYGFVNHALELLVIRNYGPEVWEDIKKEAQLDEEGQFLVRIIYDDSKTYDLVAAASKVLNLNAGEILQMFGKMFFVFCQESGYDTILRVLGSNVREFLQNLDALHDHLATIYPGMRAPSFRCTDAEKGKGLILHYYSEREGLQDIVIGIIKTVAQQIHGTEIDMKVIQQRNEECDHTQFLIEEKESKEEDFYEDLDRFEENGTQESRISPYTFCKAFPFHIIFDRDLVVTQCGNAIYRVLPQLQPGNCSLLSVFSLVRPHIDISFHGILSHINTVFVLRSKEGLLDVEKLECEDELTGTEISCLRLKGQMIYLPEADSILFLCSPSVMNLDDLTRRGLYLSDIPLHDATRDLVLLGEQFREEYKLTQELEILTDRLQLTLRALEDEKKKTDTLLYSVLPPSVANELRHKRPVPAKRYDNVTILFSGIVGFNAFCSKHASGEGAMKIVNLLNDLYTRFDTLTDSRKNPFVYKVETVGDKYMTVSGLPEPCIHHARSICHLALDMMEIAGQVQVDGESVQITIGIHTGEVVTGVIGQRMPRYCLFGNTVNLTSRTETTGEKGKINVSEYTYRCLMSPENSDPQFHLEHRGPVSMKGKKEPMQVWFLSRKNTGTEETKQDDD
Assay: CHO cellular assay (cGMP production, HTRF)
Conditions: CHO K1 clone 8E10 overexpressing human sGC, Cisbio HTRF, 1 h room temperature, 1 mM IBMX, 20 uM ODQ, minimum quantification limit 0.5 nM
quantity: pEC50
Entry type: numeric. Quantity: pEC50, the -log10 of concentration in molar units.

1) Cc1cc(COc2ccc(C3CCN(C(=O)C4CC4)CC3O)cc2)c(-c2cccc(-n3ncc(C(=O)O)c3C(F)(F)F)n2)s1 (racemic) : 6.80

In: Given Cc1cc(C2CCN(C(=O)C3CCNC3)CC2)ccc1OCc1ccsc1-c1cccc(-n2ncc(C(=O)O)c2C(F)(F)F)n1 (racemic) , respond with its pEC50.
Out: 6.21

In: Given Cc1cc(C2CCN(C(=O)C3CNC3)CC2)ccc1OCc1ccsc1-c1cccc(-n2ncc(C(=O)O)c2C(F)(F)F)n1 , respond with its pEC50.
Out: 6.05

In: Given CCC(=O)N1CCC(c2ccc(OCc3cc(C(C)C)sc3-c3cccc(-n4ncc(C(=O)O)c4C(F)(F)F)n3)c(C)c2)CC1 , respond with its pEC50.
Out: 6.17

In: Given Cc1cc(C2CCN(C(=O)CC3CC3)CC2)ccc1OCc1ccsc1-c1cccc(-n2ncc(C(=O)O)c2C(F)(F)F)n1 , respond with its pEC50.
Out: 8.70

In: Given CCC(=O)N1CCC(c2ccc(OCc3cc(C)sc3-c3cccc(-n4ncc(C(=O)O)c4C(F)(F)F)n3)cc2)CC1 , respond with its pEC50.
Out: 8.52

In: Given CCc1cc(C2CCN(C(=O)C3CC3)CC2)ccc1OCc1cc(C)sc1-c1cccc(-n2ncc(C(=O)O)c2C(F)(F)F)n1 , respond with its pEC50.
Out: 8.02

In: Given Cc1cc(C2CCN(C(=O)C3CC3)CC2)ccc1OCc1cc(C(C)C)sc1-c1cccc(-n2ncc(C(=O)O)c2C(F)(F)F)n1 , respond with its pEC50.
Out: 7.02

In: Given O=C(O)c1cnn(-c2cccc(-c3sccc3COc3ccc(C4CCN(C(=O)C5CC5)CC4)cc3)n2)c1C(F)(F)F , respond with its pEC50.
Out: 8.55
